tested on: HT1080 tumors; test: Human fibrosarcoma xenograft, total diameter (tumor + leg); conditions: Day 16
Each entry gets not satisfied if its Total diameter (tumor + leg) stays under 10 mm, and satisfied if its Total diameter (tumor + leg) is 10 mm or above.

Please indicate if the recorded Total diameter (tumor + leg) for COc1c(C)cc2c(c1O)[C@@H]1[C@@H]3[C@@H]4SC[C@]5(N[C@@H](CN)Cc6c5[nH]c5ccccc65)C(=O)OC[C@@H](c5c6c(c(C)c(OC(C)=O)c54)OCO6)N3[C@@H](O)[C@H](C2)N1C meets or exceeds 10 mm.
satisfied

Please indicate if the recorded Total diameter (tumor + leg) for COc1c(C)cc2c(c1O)[C@@H]1[C@@H]3[C@@H]4SC[C@]5(N[C@@H](CN)Cc6c5oc5ccccc65)C(=O)OC[C@@H](c5c6c(c(C)c(OC(C)=O)c54)OCO6)N3[C@@H](O)[C@H](C2)N1C meets or exceeds 10 mm.
satisfied

Please indicate if the recorded Total diameter (tumor + leg) for COc1ccc2[nH]c3c(c2c1)CCN[C@]31CS[C@@H]2c3c(OC(C)=O)c(C)c4c(c3[C@H](COC1=O)N1[C@@H]2[C@H]2c3c(cc(C)c(OC)c3O)C[C@@H]([C@@H]1O)N2C)OCO4 [PM01183, reference compound] meets or exceeds 10 mm.
satisfied

Origin of the recorded values: patent US12384800B2
